- Assay Details: Antibacterial activity against five Gram-negative bacteria
- Format: functional
- Assay Conditions: read-out: MIC
Criterion: MIC strictly under 0.2 µg/mL. Met: rule met. Not met: rule not met.

Here's what some known entries look like.
Molecule	Class
CC1CN(c2c(F)cc3c(=O)c(C(=O)O)cn(-c4ccc(F)cc4F)c3c2C(F)(F)F)CCN1 (stereo not drawn)	rule not met
CCNCC1CCN(c2c(F)cc3c(=O)c(C(=O)O)cn(C4CC4)c3c2F)C1 (stereo in doubt; 12)	rule met
CCNCC1CCN(c2c(F)cc3c(=O)c(C(=O)O)cn(CC4CC4)c3c2F)C1 (stereo not drawn)	rule not met

MIC under 0.2 µg/mL? Item: CCNCC1CCN(c2c(F)c(NC(C)=O)c3c(=O)c(C(=O)O)cn(C4CC4)c3c2F)C1 (stereo not drawn) rule not met

MIC under 0.2 µg/mL? Item: CNCC1(C)CCN(c2c(F)cc3c(=O)c(C(=O)O)cn(C4CC4)c3c2F)C1 (stereo not drawn) rule not met

MIC under 0.2 µg/mL? Item: NCC1CCN(c2c(F)cc3c(=O)c(C(=O)O)cn(C4CC4)c3c2C(F)(F)F)C1 (stereo not drawn) rule not met

MIC under 0.2 µg/mL? Item: CCNCC1CCN(c2c(F)c(NC)c3c(=O)c(C(=O)O)cn(C4CC4)c3c2F)C1 (stereo not drawn) rule not met

MIC under 0.2 µg/mL? Item: Nc1c(F)c(N2CCC(N)C2)c(Cl)c2c1c(=O)c(C(=O)O)cn2C1CC1 (stereo not drawn) rule met

MIC under 0.2 µg/mL? Item: COc1c(N2CCCC2)c(F)cc2c(=O)c(C(=O)O)cn(C3CC3)c12 rule not met

MIC under 0.2 µg/mL? Item: CCNCC1CCN(c2cc3c(cc2F)c(=O)c(C(=O)O)cn3C2CC2)C1 (stereo in doubt; 26a) rule not met

MIC under 0.2 µg/mL? Item: CC1(CN)CCN(c2cc3c(cc2F)c(=O)c(C(=O)O)cn3C2CC2)C1 (stereo not drawn) rule not met

MIC under 0.2 µg/mL? Item: COc1c(N2CCC(C)(CN)C2)c(F)cc2c(=O)c(C(=O)O)cn(C3CC3)c12 (stereo not drawn) rule not met

MIC under 0.2 µg/mL? Item: CNCC1(C)CCN(c2c(F)cc3c(=O)c(C(=O)O)cn(C4CC4)c3c2C(F)(F)F)C1 (stereo not drawn) rule not met

MIC under 0.2 µg/mL? Item: CCn1cc(C(=O)O)c(=O)c2cc(F)c(N3CCNCC3)cc21 rule met

MIC under 0.2 µg/mL? Item: CCNCC1CCN(c2c(F)c(F)c3c(=O)c(C(=O)O)cn(C4CC4)c3c2F)C1 (stereo not drawn) rule not met

MIC under 0.2 µg/mL? Item: Cc1c(F)c(N2CCC(N)C2)c(C(F)(F)F)c2c1c(=O)c(C(=O)O)cn2C1CC1 (stereo not drawn) rule not met

MIC under 0.2 µg/mL? Item: CC1(N)CCN(c2c(F)cc3c(=O)c(C(=O)O)cn(C4CC4)c3c2C(F)(F)F)C1 (stereo not drawn) rule not met

MIC under 0.2 µg/mL? Item: COc1c(N2CCC(C)(N)C2)c(F)cc2c(=O)c(C(=O)O)cn(C3CC3)c12 (stereo not drawn) rule not met

MIC under 0.2 µg/mL? Item: CCNCC1CCN(c2cc3c(cc2F)c(=O)c(C(=O)O)cn3CC)C1 (stereo not drawn) rule not met

MIC under 0.2 µg/mL? Item: CC1(N)CCN(c2c(F)cc3c(=O)c(C(=O)O)cn(-c4ccc(F)cc4F)c3c2C(F)(F)F)C1 (stereo not drawn) rule not met

MIC under 0.2 µg/mL? Item: Cc1c(F)c(N2CCC(N)C2)cc2c1c(=O)c(C(=O)O)cn2C1CC1 (stereo not drawn) rule met

MIC under 0.2 µg/mL? Item: CCNCC1CCN(c2c(F)c(C)c3c(=O)c(C(=O)O)cn(C4CC4)c3c2F)C1 (stereo not drawn) rule not met

MIC under 0.2 µg/mL? Item: O=C(O)c1cn(C2CC2)c2nc(N3CCNCC3)c(F)cc2c1=O rule met
